Molecular target: CTLA-4 (Homo sapiens (Human)) (UniProt P16410)
Sequence (P16410 36-223): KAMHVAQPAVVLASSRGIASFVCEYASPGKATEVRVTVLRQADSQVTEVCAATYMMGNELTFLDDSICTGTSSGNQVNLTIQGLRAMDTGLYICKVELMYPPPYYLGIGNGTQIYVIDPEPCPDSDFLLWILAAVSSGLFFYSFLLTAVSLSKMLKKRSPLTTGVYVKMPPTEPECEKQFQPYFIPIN
Experiment: flow cytometry, transfected cells
Reported endpoint: MFI ratio to WT (ΔWT) (fold)
Numbers only; they are read as fold.

- Binder: "ICOSL-Fc N52S/N57M/Q100S (Fc fusion) DTQEKEVRAMVGSDVELSCACPEGSRFDLNDVYVYWQTSESKTVVTYHIPQSSSLEMVDSRYRNRALMSPAGMLRGDFSLRLFNVTPQDEQKFHCLVLSSSLGFQEVLSVEVTLHVAANFSVPVVSAPHSPSQDELTFTCTSINGYPRPNVYWINKTDNSLLDQALQNDTVFLNMRGLYDVVSVLRIARTPSVNIGCCIENVLLQQNLTVGSQTGNDIGERDKITENPVSTGEKNAAT"
  Unit abbrev: "fold"
  MFI ratio to WT (ΔWT): 0.69
- Binder: "ICOSL-Fc N52G/N57V/Q100G (Fc fusion) DTQEKEVRAMVGSDVELSCACPEGSRFDLNDVYVYWQTSESKTVVTYHIPQGSSLEVVDSRYRNRALMSPAGMLRGDFSLRLFNVTPQDEQKFHCLVLSGSLGFQEVLSVEVTLHVAANFSVPVVSAPHSPSQDELTFTCTSINGYPRPNVYWINKTDNSLLDQALQNDTVFLNMRGLYDVVSVLRIARTPSVNIGCCIENVLLQQNLTVGSQTGNDIGERDKITENPVSTGEKNAAT"
  Unit abbrev: "fold"
  MFI ratio to WT (ΔWT): 0.04
- Binder: "ICOSL-Fc N52A/N57Y/Q100A (Fc fusion) DTQEKEVRAMVGSDVELSCACPEGSRFDLNDVYVYWQTSESKTVVTYHIPQASSLEYVDSRYRNRALMSPAGMLRGDFSLRLFNVTPQDEQKFHCLVLSASLGFQEVLSVEVTLHVAANFSVPVVSAPHSPSQDELTFTCTSINGYPRPNVYWINKTDNSLLDQALQNDTVFLNMRGLYDVVSVLRIARTPSVNIGCCIENVLLQQNLTVGSQTGNDIGERDKITENPVSTGEKNAAT"
  Unit abbrev: "fold"
  MFI ratio to WT (ΔWT): 0.97
- Binder: "ICOSL-Fc N57Q/Q100P (Fc fusion) DTQEKEVRAMVGSDVELSCACPEGSRFDLNDVYVYWQTSESKTVVTYHIPQNSSLEQVDSRYRNRALMSPAGMLRGDFSLRLFNVTPQDEQKFHCLVLSPSLGFQEVLSVEVTLHVAANFSVPVVSAPHSPSQDELTFTCTSINGYPRPNVYWINKTDNSLLDQALQNDTVFLNMRGLYDVVSVLRIARTPSVNIGCCIENVLLQQNLTVGSQTGNDIGERDKITENPVSTGEKNAAT"
  Unit abbrev: "fold"
  MFI ratio to WT (ΔWT): 0.21
- Binder: "ICOSL-Fc N52S/N57H/Q100E (Fc fusion) DTQEKEVRAMVGSDVELSCACPEGSRFDLNDVYVYWQTSESKTVVTYHIPQSSSLEHVDSRYRNRALMSPAGMLRGDFSLRLFNVTPQDEQKFHCLVLSESLGFQEVLSVEVTLHVAANFSVPVVSAPHSPSQDELTFTCTSINGYPRPNVYWINKTDNSLLDQALQNDTVFLNMRGLYDVVSVLRIARTPSVNIGCCIENVLLQQNLTVGSQTGNDIGERDKITENPVSTGEKNAAT"
  Unit abbrev: "fold"
  MFI ratio to WT (ΔWT): 0.92

Query: MFI ratio to WT (ΔWT); subject: ICOSL-Fc N52L/N57H/Q100R (Fc fusion) DTQEKEVRAMVGSDVELSCACPEGSRFDLNDVYVYWQTSESKTVVTYHIPQLSSLEHVDSRYRNRALMSPAGMLRGDFSLRLFNVTPQDEQKFHCLVLSRSLGFQEVLSVEVTLHVAANFSVPVVSAPHSPSQDELTFTCTSINGYPRPNVYWINKTDNSLLDQALQNDTVFLNMRGLYDVVSVLRIARTPSVNIGCCIENVLLQQNLTVGSQTGNDIGERDKITENPVSTGEKNAAT 1.07

Query: MFI ratio to WT (ΔWT); subject: ICOSL-Fc N52R/N57W/Q100K (Fc fusion) DTQEKEVRAMVGSDVELSCACPEGSRFDLNDVYVYWQTSESKTVVTYHIPQRSSLEWVDSRYRNRALMSPAGMLRGDFSLRLFNVTPQDEQKFHCLVLSKSLGFQEVLSVEVTLHVAANFSVPVVSAPHSPSQDELTFTCTSINGYPRPNVYWINKTDNSLLDQALQNDTVFLNMRGLYDVVSVLRIARTPSVNIGCCIENVLLQQNLTVGSQTGNDIGERDKITENPVSTGEKNAAT 1.44

Query: MFI ratio to WT (ΔWT); subject: ICOSL-Fc N52M/N57H/Q100S (Fc fusion) DTQEKEVRAMVGSDVELSCACPEGSRFDLNDVYVYWQTSESKTVVTYHIPQMSSLEHVDSRYRNRALMSPAGMLRGDFSLRLFNVTPQDEQKFHCLVLSSSLGFQEVLSVEVTLHVAANFSVPVVSAPHSPSQDELTFTCTSINGYPRPNVYWINKTDNSLLDQALQNDTVFLNMRGLYDVVSVLRIARTPSVNIGCCIENVLLQQNLTVGSQTGNDIGERDKITENPVSTGEKNAAT 1.4

Query: MFI ratio to WT (ΔWT); subject: ICOSL-Fc N52S/N57Y/Q100V (Fc fusion) DTQEKEVRAMVGSDVELSCACPEGSRFDLNDVYVYWQTSESKTVVTYHIPQSSSLEYVDSRYRNRALMSPAGMLRGDFSLRLFNVTPQDEQKFHCLVLSVSLGFQEVLSVEVTLHVAANFSVPVVSAPHSPSQDELTFTCTSINGYPRPNVYWINKTDNSLLDQALQNDTVFLNMRGLYDVVSVLRIARTPSVNIGCCIENVLLQQNLTVGSQTGNDIGERDKITENPVSTGEKNAAT 0.92

Query: MFI ratio to WT (ΔWT); subject: ICOSL-Fc N52R/N57L/Q100A (Fc fusion) DTQEKEVRAMVGSDVELSCACPEGSRFDLNDVYVYWQTSESKTVVTYHIPQRSSLELVDSRYRNRALMSPAGMLRGDFSLRLFNVTPQDEQKFHCLVLSASLGFQEVLSVEVTLHVAANFSVPVVSAPHSPSQDELTFTCTSINGYPRPNVYWINKTDNSLLDQALQNDTVFLNMRGLYDVVSVLRIARTPSVNIGCCIENVLLQQNLTVGSQTGNDIGERDKITENPVSTGEKNAAT 1.22
